# Test system: Fibroblast
# test.description: Multiplex assay against human fibroblast
# Format: toxicity, cell-based
# test.context: 12 h, 10 µM, compound concentration 10 uM, replicate 1
I'd appreciate it if you marked entries true (1) when Population Mitochondria Different-Phenotype (%) is lower than 20% and false (0) when it is not.

Does the reported Population Mitochondria Different-Phenotype (%) of `c1ccc(-c2oc3ncnc(NC[C@@H]4CCCO4)c3c2-c2ccccc2)cc1` stay below 20%?
false (0)

Bench note: check whether `CCCc1cc(C)[nH]c(=O)c1CNC(=O)c1cc(-c2ccc(N3CCN(C(C)C)CC3)nc2)cc2c1cnn2C(C)C` shows Population Mitochondria Different-Phenotype (%) below 20%
false (0)

I wonder whether `CN(c1cc(C(F)(F)F)nc(OCCC(=O)O)n1)c1cccc2c1CCC2` has Population Mitochondria Different-Phenotype (%) below 20%. Can you tell?
true (1)
